target: Rabbit Reticulocyte Lysate (eukaryotic protein synthesis); assay: Rabbit reticulocyte lysate luciferase assay (inhibition of eukaryotic protein synthesis); type: biochemical; details: class by IC50 or % inhibition @ 1 μM, read-out: Rabbit reticulocyte IC50 (μM/% inhib.)
Listed next: entries and their corresponding IC50.

compound	IC50
NC[C@@H]1[C@H]2CN(CCc3ccc(-n4ccc(NC(=O)N5CCC6(CC5)CNC6)nc4=O)cc3)C[C@@H]12 [Compound 147]	≥ 1 µM
NC[C@H]1[C@@H]2CCN(C(=O)Nc3ccn(-c4ccc(CN5C[C@@H]6[C@@H](N)[C@@H]6C5)cc4)c(=O)n3)C[C@H]12 [Compound 50]	≥ 1 µM
CC(C)(N)C(=O)N1CCN(C(=O)Nc2ccn(-c3ccc(CN4C[C@H]5CNC[C@H]5C4)cc3)c(=O)n2)CC1 [Compound 76]	≥ 1 µM

====

tested on: E. coli (Ec); assay: Broth microdilution minimum inhibitory concentration (MIC), CLSI; type: cell-based; details: Escherichia coli, growth medium supplemented with sodium bicarbonate, read-out: E. coli + bicarb MIC
Listed next: entries and their corresponding MIC.

compound	test-target	MIC
CC(C)(N)C(=O)N1CCN(C(=O)Nc2ccn(-c3cccc(CCN4CC5CC5(CN)C4)c3)c(=O)n2)CC1 (stereo not shown)	E. coli (Ec)	< 8 µg/mL
CC(C)(N)C(=O)N1CCN(C(=O)Nc2ccn(-c3ccc(CN4CC[C@H]5[C@H](N)[C@H]5C4)cc3)c(=O)n2)CC1	E. coli (Ec)	< 8 µg/mL
CC(C)(N)C(=O)N1CCN(C(=O)Nc2ccn(-c3ccc(C(N)C(=O)N4C[C@@H]5[C@@H](N)[C@@H]5C4)cc3)c(=O)n2)CC1 (stereo partly shown)	E. coli (Ec)	> 32 µg/mL
CC(C)(N)C(=O)N1CCN(C(=O)Nc2ccn(-c3ccc(CCN4CC5(CCC5N)C4)cc3)c(=O)n2)CC1 (stereo not shown)	E. coli (Ec)	< 8 µg/mL

====

system: E. faecalis (Ef); assay: Broth microdilution minimum inhibitory concentration (MIC), CLSI; type: cell-based; details: Enterococcus faecalis, growth medium supplemented with sodium bicarbonate, read-out: Ef + bicarb MIC
reported-endpoint: MIC

compound	measured-result
CC(C)(N)C(=O)N1CCN(C(=O)Nc2ccn(-c3ccc(CCN4CC5CC5(CN)C4)c(F)c3)c(=O)n2)CC1 (stereo not shown) [Compound 123]	< 8 µg/mL
CC(C)(N)C(=O)N1CCN(C(=O)Nc2ccn(-c3ccc(CCN4CCC5CC5(N)C4)cc3)c(=O)n2)CC1 (stereo not shown) [Compound 93]	< 8 µg/mL
NCC[C@H](N)C(=O)N1CCN(C(=O)Nc2ccn(-c3ccc(CN4C[C@@H]5[C@@H](N)[C@@H]5C4)cc3)c(=O)n2)CC1 [Compound 41]	> 32 µg/mL
C[C@](N)(CO)C(=O)N1CCN(C(=O)Nc2ccn(-c3ccc(CN4C[C@@H]5[C@@H](N)[C@@H]5C4)cc3)c(=O)n2)CC1 [Compound 4]	< 8 µg/mL
CC(C)(N)C(=O)N1CCN(C(=O)Nc2ccn(-c3ccc(CN4C[C@@H]5[C@@H](N)[C@@H]5C4)cc3)c(=O)n2)CC1 [Compound 3]	< 8 µg/mL
C[C@](N)(CO)C(=O)N1CCN(C(=O)Nc2ccn(-c3ccc(CN4C[C@@H]5[C@@H](N)[C@@H]5C4)c(Cl)c3)c(=O)n2)CC1 [Compound 25]	> 32 µg/mL
CC(C)(N)C(=O)N1CCN(C(=O)Nc2ccn(-c3ccc(CN4CC5(CC(N)C5)C4)cc3)c(=O)n2)CC1 [Compound 34]	8 to 32 µg/mL
COc1cc(-n2ccc(NC(=O)N3CCN(C(=O)C(C)(C)N)CC3)nc2=O)ccc1CCN1C[C@@H]2[C@@H](CN)[C@@H]2C1 [Compound 132]	8 to 32 µg/mL
CC(C)(N)C(=O)N1CCN(C(=O)Nc2ccn(-c3ccc(CN4CC[C@H]5[C@H](N)[C@H]5C4)cc3)c(=O)n2)CC1 [Compound 30]	< 8 µg/mL
NC1CCC12CCN(C(=O)Nc1ccn(-c3ccc(CN4C[C@@H]5[C@@H](N)[C@@H]5C4)cc3)c(=O)n1)CC2 (stereo partly shown) [Compound 64]	8 to 32 µg/mL
CC(C)(N)C(=O)N1CCN(C(=O)Nc2ccn(-c3ccc(CN4CC5CC(N)C5C4)cc3)c(=O)n2)CC1 (stereo not shown) [Compound 42]	8 to 32 µg/mL
C[C@H](Cc1ccc(-n2ccc(NC(=O)N3CCN(C(=O)C(C)(C)N)CC3)nc2=O)cc1)N1C[C@@H]2[C@@H](CN)[C@@H]2C1 [Compound 140]	< 8 µg/mL
CC(Cc1ccc(-n2ccc(NC(=O)N3CCN(C(=O)C(C)(C)N)CC3)nc2=O)cc1F)N1C[C@@H]2[C@@H](CN)[C@@H]2C1 (stereo partly shown) [Compound 139]	< 8 µg/mL
C[C@@H]1CN(C(=O)C(C)(C)N)CCN1C(=O)Nc1ccn(-c2ccc(CN3C[C@@H]4[C@@H](N)[C@@H]4C3)cc2)c(=O)n1 [Compound 28]	< 8 µg/mL
COC[C@@](C)(N)C(=O)N1CCN(C(=O)Nc2ccn(-c3ccc(CN4C[C@@H]5[C@@H](N)[C@@H]5C4)cc3)c(=O)n2)CC1 [Compound 53]	< 8 µg/mL
CC(N)[C@H]1[C@@H]2CN(Cc3ccc(-n4ccc(NC(=O)N5CCN(C(=O)C(C)(C)N)CC5)nc4=O)cc3)C[C@@H]21 (stereo partly shown) [Compound 73]	8 to 32 µg/mL
CC(C)(N)C(=O)N1CCN(C(=O)Nc2ccn(-c3ccc(CCN4C[C@@H]5[C@@H](CN)[C@@H]5C4)cc3)c(=O)n2)CC1 [Compound 116]	8 to 32 µg/mL
CCCC(Cc1ccc(-n2ccc(NC(=O)N3CCN(C(=O)C(C)(C)N)CC3)nc2=O)cc1F)N1C[C@@H]2[C@@H](CN)[C@@H]2C1 (stereo partly shown) [Compound 153]	< 8 µg/mL
CC(C)(N)C(=O)N1CCN(C(=O)Nc2ccn(-c3ccc(CN4C[C@@H]5[C@H](C4)[C@H]5C(N)=O)cc3)c(=O)n2)CC1 [Compound 74]	> 32 µg/mL
Cc1cc(-n2ccc(NC(=O)N3CCN(C(=O)[C@@](C)(N)CO)CC3)nc2=O)ccc1CCN1C[C@@H]2[C@@H](CN)[C@@H]2C1 [Compound 129]	8 to 32 µg/mL
CC(C)(N)C(=O)N1CCN(C(=O)Nc2ccn(-c3ccc(CCN4C[C@@H]5[C@@H](CN)[C@@H]5C4)c(C(F)(F)F)c3)c(=O)n2)CC1 [Compound 102]	8 to 32 µg/mL
COc1cc(-n2ccc(NC(=O)N3CCN(C(=O)C(C)(C)N)CC3)nc2=O)ccc1CCN1CC2CC2(CN)C1 (stereo not shown) [Compound 133]	8 to 32 µg/mL
Cc1cc(-n2ccc(NC(=O)N3CCN(C(=O)[C@@](C)(N)CO)CC3)nc2=O)ccc1CCN1CC2CC2(CN)C1 (stereo partly shown) [Compound 128]	8 to 32 µg/mL
CC(C)(N)C(=O)N1CCN(C(=O)Nc2ccn(-c3ccc(CN4CCC5(CC4)CC(N)C5)cc3)c(=O)n2)CC1 [Compound 33]	< 8 µg/mL
NC[C@@H]1[C@H]2CN(CCc3ccc(-n4ccc(NC(=O)N5CC6(CC(N)C6)C5)nc4=O)cc3)C[C@@H]12 [Compound 149]	> 32 µg/mL

====

test system: E. faecalis (Ef); assay: Broth microdilution minimum inhibitory concentration (MIC), CLSI; type: cell-based; conditions: Enterococcus faecalis, growth medium supplemented with sodium bicarbonate, read-out: Ef + bicarb MIC
Listed next: entries and their corresponding MIC.

molecule	test-target	MIC
NC[C@@H]1[C@H]2CN(CCc3ccc(-n4ccc(NC(=O)N5CCC6(CC5)CC(N)C6)nc4=O)cc3)C[C@@H]12	E. faecalis (Ef)	< 8 µg/mL
CNC[C@@H]1[C@H]2CN(C(C)Cc3ccc(-n4ccc(NC(=O)N5CCN(C(=O)C(C)(C)N)CC5)nc4=O)cc3)C[C@@H]12 (stereo partly drawn)	E. faecalis (Ef)	8 to 32 µg/mL
CC[C@@H](N)C1[C@H]2CN(CCc3ccc(-n4ccc(NC(=O)N5CCN(C(=O)C(C)(C)N)CC5)nc4=O)cc3)C[C@@H]12 (stereo partly drawn)	E. faecalis (Ef)	> 32 µg/mL
NC[C@@H]1[C@H]2CN(CCc3ccc(-n4ccc(NC(=O)N5CCC6(CC5)CNC6)nc4=O)cc3)C[C@@H]12	E. faecalis (Ef)	> 32 µg/mL
CC(C)(N)C(=O)N1CCN(C(=O)Nc2ccn(-c3ccc(CCN4CCC5(CCC5N)CC4)cc3)c(=O)n2)CC1 (stereo not drawn)	E. faecalis (Ef)	> 32 µg/mL
CC(Cc1ccc(-n2ccc(NC(=O)N3CCN(C(=O)C(C)(C)N)CC3)nc2=O)cc1)N1CC2(CCC2N)C1 (stereo not drawn)	E. faecalis (Ef)	8 to 32 µg/mL

====

tested on: E. coli S30 extract (bacterial protein synthesis); assay: E. coli S30 extract coupled transcription-translation luciferase assay (inhibition of bacterial protein synthesis); assay type: biochemical; details: % inhibition @ 1 μM, read-out: S30 IC50 (μM/% inhib.)
reported-endpoint: IC50

compound	measured-result
CC(Cc1ccc(-n2ccc(NC(=O)N3CCN(C(=O)C(C)(C)N)CC3)nc2=O)cc1)N1CC2CCC(N)CC2C1 (stereo not shown) [Compound 243]	0.5 to 1 µM
CC(C)(N)C(=O)N1CCN(C(=O)Nc2ccn(-c3ccc(CCN4C[C@@H]5[C@H](C4)[C@H]5C(N)CN)cc3)c(=O)n2)CC1 (stereo partly shown) [Compound 213]	≥ 1 µM
CCN(Cc1ccc(-n2ccc(NC(=O)N3CCN(C(=O)C(C)(C)N)CC3)nc2=O)cc1)C12CCC(N)(CC1)CC2 [Compound 172]	< 0.5 µM
CC(C)(N)C(=O)N1CCN(C(=O)Nc2ccn(-c3ccc(CNC45CCC(N)(CC4)CC5)cc3)c(=O)n2)CC1 [Compound 167]	< 0.5 µM
